# Tested on: Escherichia coli TOP10
# METHOD: shrunken log2 fold change of peptide-encoding DNA abundance (4.5 h post-induction vs induction); higher = less antimicrobial activity (less host growth inhibition)
# TEST_CONDITIONS: time post-induction: 4.5 h; library: site-saturation at positions 5, 18, 19, 20
Returns one of TRUE or FALSE; TRUE when shrunken log2 fold change is >= -0.1.

Solved entries:
1. RRIRPRPPRLPRPRPRPQNIPRP	FALSE
2. RRIRTRPPRLPRPRPRPDARPRP	TRUE

I'd appreciate it if you could say whether RRIRWRPPRLPRPRPRPKSCPRP has shrunken log2 fold change at least equal to -0.1.
TRUE

Has RRIRDRPPRLPRPRPRPYKNPRP a recorded shrunken log2 fold change greater than or equal to -0.1?
FALSE

Could you tell me if the measured shrunken log2 fold change of RRIRGRPPRLPRPRPRPRFMPRP reaches -0.1 or more?
TRUE

Tell me whether shrunken log2 fold change is at least -0.1 here: RRIRVRPPRLPRPRPRPIGIPRP
FALSE

Does the sequence RRIRSRPPRLPRPRPRPFRSPRP have recorded shrunken log2 fold change that is -0.1 or more?
TRUE

Test whether the sequence RRIRLRPPRLPRPRPRPWVTPRP records shrunken log2 fold change of -0.1 or higher.
FALSE

Say whether RRIRHRPPRLPRPRPRPLFDPRP shows shrunken log2 fold change of -0.1 or more.
FALSE

====

# Test system: Escherichia coli TOP10
# METHOD: shrunken log2 fold change of peptide-encoding DNA abundance (4.5 h post-induction vs induction); higher = less antimicrobial activity (less host growth inhibition)
# TEST_CONDITIONS: time post-induction: 4.5 h; library: site-saturation at positions 5, 18, 19, 20
Assign class by shrunken log2 fold change: not lower than 0.03 means class 1; lower than 0.03 means class 0.

These recorded examples may help you get a feel for the data.
1. RRIRVRPPRLPRPRPRPEMPPRP	class 1
2. RRIRHRPPRLPRPRPRPANSPRP	class 0
3. RRIRKRPPRLPRPRPRPQCQPRP	class 1

// inclusive: shrunken log2 fold change at least 0.03? input: RRIRYRPPRLPRPRPRPSRSPRP
class 1

Could you verify whether the entry RRIRERPPRLPRPRPRPQEEPRP shows shrunken log2 fold change of no less than 0.03?
class 0

Test whether the sequence RRIRARPPRLPRPRPRPAHFPRP records shrunken log2 fold change of 0.03 or higher.
class 1

Assess whether reported shrunken log2 fold change for RRIRERPPRLPRPRPRPTEGPRP sits at 0.03 or higher.
class 1

Would you say RRIRTRPPRLPRPRPRPWLDPRP shows shrunken log2 fold change at minimum 0.03?
class 0

====

# Tested on: Escherichia coli TOP10
# METHOD: shrunken log2 fold change of peptide-encoding DNA abundance (4.5 h post-induction vs induction); higher = less antimicrobial activity (less host growth inhibition)
# TEST_CONDITIONS: time post-induction: 4.5 h; library: site-saturation at positions 5, 18, 19, 20
I'd be grateful if you could share measured shrunken log2 fold change for these entries.
Numbers only.

Use the examples below as a reference point.
1) RRIRERPPRLPRPRPRPHQAPRP	0.0779
2) RRIRPRPPRLPRPRPRPVKPPRP	-0.14
3) RRIRHRPPRLPRPRPRPKWEPRP	-0.000889

State recorded shrunken log2 fold change for all listed sequences.
1. RRIRERPPRLPRPRPRPMSPPRP
2. RRIRERPPRLPRPRPRPEEQPRP
3. RRIRNRPPRLPRPRPRPQDPPRP

1. -0.0381
2. 0.221
3. -0.296

Fill in shrunken log2 fold change for each of the 8 sequences listed.
1. RRIRQRPPRLPRPRPRPPRSPRP
2. RRIRMRPPRLPRPRPRPMGRPRP
3. RRIRSRPPRLPRPRPRPANPPRP
4. RRIRCRPPRLPRPRPRPLAGPRP
5. RRIRWRPPRLPRPRPRPNWGPRP
6. RRIRRRPPRLPRPRPRPTHSPRP
7. RRIRTRPPRLPRPRPRPRWPPRP
8. RRIRRRPPRLPRPRPRPTRQPRP

1: 0.601; 2: -0.0209; 3: 0.11; 4: 0.153; 5: 0.105; 6: 0.775; 7: 0.424; 8: 1.33

====

# System: Escherichia coli TOP10
# METHOD: shrunken log2 fold change of peptide-encoding DNA abundance (4.5 h post-induction vs induction); higher = less antimicrobial activity (less host growth inhibition)
# TEST_CONDITIONS: time post-induction: 4.5 h; library: site-saturation at positions 5, 18, 19, 20
What shrunken log2 fold change was measured for each of the following?
Answers are plain numbers.

The examples below pair each entry with its known result.
1) RRIRERPPRLPRPRPRPVSDPRP	-0.26
2) RRIRMRPPRLPRPRPRPECAPRP	3.56
3) RRIRWRPPRLPRPRPRPPNMPRP	0.0854

Each of the following entries comes with a recorded value; kindly state shrunken log2 fold change for each.
1. RRIRYRPPRLPRPRPRPNRPPRP
2. RRIRIRPPRLPRPRPRPDKFPRP
3. RRIRQRPPRLPRPRPRPAFSPRP
4. RRIRQRPPRLPRPRPRPGYNPRP

[0.000655, -0.565, 0.12, -0.185]

Report shrunken log2 fold change for each item below.
1. RRIRFRPPRLPRPRPRPGDKPRP
2. RRIRHRPPRLPRPRPRPSGWPRP
3. RRIRTRPPRLPRPRPRPQIMPRP
4. RRIRIRPPRLPRPRPRPKPQPRP
5. RRIRHRPPRLPRPRPRPVFPPRP
6. RRIRRRPPRLPRPRPRPYELPRP

1: 0.215; 2: -0.291; 3: -0.337; 4: 0.0958; 5: 0.171; 6: -0.297

Dear colleague, could you please provide shrunken log2 fold change for the sequences listed below?
1. RRIRHRPPRLPRPRPRPAHSPRP
2. RRIRNRPPRLPRPRPRPVAHPRP

[0.0457, -0.0475]

====

# Tested on: Escherichia coli TOP10
# METHOD: shrunken log2 fold change of peptide-encoding DNA abundance (4.5 h post-induction vs induction); higher = less antimicrobial activity (less host growth inhibition)
# TEST_CONDITIONS: time post-induction: 4.5 h; library: site-saturation at positions 5, 18, 19, 20
MEASUREMENT_KIND: shrunken log2 fold change
Give bare numbers.

1) RRIRYRPPRLPRPRPRPFTEPRP	-0.955
2) RRIRPRPPRLPRPRPRPGFPPRP	0.355
3) RRIRMRPPRLPRPRPRPVATPRP	1.64

# map each sequence to its shrunken log2 fold change
1. RRIRTRPPRLPRPRPRPWIVPRP
2. RRIRLRPPRLPRPRPRPTEIPRP
3. RRIRFRPPRLPRPRPRPVIMPRP
4. RRIRERPPRLPRPRPRPPGQPRP

[-0.0452, -0.15, -0.297, 0.104]

I need shrunken log2 fold change for every entry listed below, if you could help.
1. RRIRQRPPRLPRPRPRPRRFPRP
2. RRIRVRPPRLPRPRPRPMWGPRP
3. RRIRTRPPRLPRPRPRPNHNPRP
4. RRIRARPPRLPRPRPRPFFRPRP
5. RRIRDRPPRLPRPRPRPFFLPRP
6. RRIRIRPPRLPRPRPRPFVWPRP
7. RRIRHRPPRLPRPRPRPMFLPRP
8. RRIRWRPPRLPRPRPRPRYSPRP

0.222
-0.174
-0.914
0.126
-0.261
-0.157
-0.797
-0.136

====

# Test system: Escherichia coli TOP10;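 note: peptides expressed intracellularly from a pBAD plasmid library in pooled LB shake-flask culture, induced with 0.3% L-arabinose, DNA abundance read by NGS, three biological replicates, DESeq2 with apeglm shrinkage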
# METHOD: shrunken log2 fold change of peptide-encoding DNA abundance (4.5 h post-induction vs induction); higher = less antimicrobial activity (less host growth inhibition)
# TEST_CONDITIONS: time post-induction: 4.5 h; library: site-saturation at positions 5, 18, 19, 20
# shrunken log2 fold change >= 0.05 gives rule met, anything below gives rule not met

Some solved entries appear below for comparison.
1) RRIRPRPPRLPRPRPRPYWAPRP	rule not met
2) RRIRERPPRLPRPRPRPHNMPRP	rule not met
3) RRIRIRPPRLPRPRPRPFTHPRP	rule not met
4) RRIRSRPPRLPRPRPRPAPSPRP	rule met
5) RRIRRRPPRLPRPRPRPDQLPRP	rule not met
6) RRIRCRPPRLPRPRPRPTNFPRP	rule not met
7) RRIRTRPPRLPRPRPRPVNVPRP	rule not met
8) RRIRFRPPRLPRPRPRPQVYPRP	rule not met
9) RRIRIRPPRLPRPRPRPKMWPRP	rule met
10) RRIRVRPPRLPRPRPRPVVDPRP	rule not met

Reported shrunken log2 fold change reaches at least 0.05 for RRIRYRPPRLPRPRPRPIDIPRP ?
rule not met

Identify whether the reported shrunken log2 fold change of the following sequence is 0.05 or greater: RRIRYRPPRLPRPRPRPLPCPRP
rule not met

Hi team, for RRIRYRPPRLPRPRPRPMVWPRP , is the recorded shrunken log2 fold change at or above 0.05?
rule not met

Textbook exercise: given the entry RRIRYRPPRLPRPRPRPFWHPRP , state whether its shrunken log2 fold change is greater than or equal to 0.05.
rule not met

Please indicate if the recorded shrunken log2 fold change for RRIRTRPPRLPRPRPRPSVFPRP meets or exceeds 0.05.
rule not met

shrunken log2 fold change >= 0.05 for RRIRKRPPRLPRPRPRPVLPPRP ?
rule met
